Listed next: entries and their corresponding logD.
assayExplanation: Octanol-buffer partition coefficient, log D of the compound at pH 7.4
Type: physicochemical

>  <structureAsSmiles>
Oc1ccc2nc(CN3CCC(Cc4ccc(I)cc4)CC3)[nH]c2c1

>  <logD>
3.95

$$$$
>  <structureAsSmiles>
CS(=O)(=O)Nc1ccc2nc(CN3CCC(Cc4ccc(I)cc4)CC3)[nH]c2c1

>  <logD>
3.54

$$$$
>  <structureAsSmiles>
Oc1ccc2nc(CN3CCC(Oc4ccc(I)cc4)CC3)[nH]c2c1

>  <logD>
3.74

$$$$

----------
Listed next: entries and their corresponding pKi.
systemName: Glutamate receptor ionotropic, NMDA 2B (Rattus norvegicus, UniProt Q00960)
Sequence (Q00960 whole entry): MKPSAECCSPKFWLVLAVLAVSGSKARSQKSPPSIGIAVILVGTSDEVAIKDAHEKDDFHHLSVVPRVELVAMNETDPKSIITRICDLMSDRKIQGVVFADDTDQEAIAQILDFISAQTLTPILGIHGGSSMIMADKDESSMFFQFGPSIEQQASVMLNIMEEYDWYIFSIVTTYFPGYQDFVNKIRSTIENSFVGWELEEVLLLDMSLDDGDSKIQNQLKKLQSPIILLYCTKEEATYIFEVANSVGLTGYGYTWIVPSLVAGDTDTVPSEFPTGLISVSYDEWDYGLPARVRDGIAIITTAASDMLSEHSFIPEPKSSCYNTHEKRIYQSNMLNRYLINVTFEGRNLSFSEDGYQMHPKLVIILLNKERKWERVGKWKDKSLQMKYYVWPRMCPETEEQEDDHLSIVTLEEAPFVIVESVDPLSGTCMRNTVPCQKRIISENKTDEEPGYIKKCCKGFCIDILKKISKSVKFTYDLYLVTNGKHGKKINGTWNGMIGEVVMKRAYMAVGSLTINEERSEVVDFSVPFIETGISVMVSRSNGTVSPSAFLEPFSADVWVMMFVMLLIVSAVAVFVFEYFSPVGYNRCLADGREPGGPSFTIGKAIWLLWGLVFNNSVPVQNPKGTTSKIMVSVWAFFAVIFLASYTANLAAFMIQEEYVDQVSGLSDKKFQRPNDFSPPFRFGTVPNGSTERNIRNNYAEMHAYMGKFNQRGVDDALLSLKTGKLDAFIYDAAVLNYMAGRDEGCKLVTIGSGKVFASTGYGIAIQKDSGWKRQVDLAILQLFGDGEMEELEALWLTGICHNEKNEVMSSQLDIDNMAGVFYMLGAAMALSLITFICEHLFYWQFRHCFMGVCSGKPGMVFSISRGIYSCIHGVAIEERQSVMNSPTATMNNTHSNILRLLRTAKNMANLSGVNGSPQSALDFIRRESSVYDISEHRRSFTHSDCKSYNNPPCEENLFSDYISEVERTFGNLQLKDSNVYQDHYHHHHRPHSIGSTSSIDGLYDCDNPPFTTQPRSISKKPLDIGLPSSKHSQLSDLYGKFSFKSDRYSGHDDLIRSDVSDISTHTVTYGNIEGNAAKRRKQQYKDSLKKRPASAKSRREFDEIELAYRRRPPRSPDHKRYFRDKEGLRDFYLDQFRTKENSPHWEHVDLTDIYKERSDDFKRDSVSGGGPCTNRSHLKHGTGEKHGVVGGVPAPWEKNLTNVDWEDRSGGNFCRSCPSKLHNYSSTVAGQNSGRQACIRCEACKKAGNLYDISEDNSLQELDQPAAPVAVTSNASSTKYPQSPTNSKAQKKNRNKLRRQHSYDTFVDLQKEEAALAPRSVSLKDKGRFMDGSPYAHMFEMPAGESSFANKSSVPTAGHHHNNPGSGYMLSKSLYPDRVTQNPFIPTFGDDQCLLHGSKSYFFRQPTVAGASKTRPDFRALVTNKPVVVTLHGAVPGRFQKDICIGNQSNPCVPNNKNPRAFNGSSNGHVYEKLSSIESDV
pKi: −log10 of the molar value.

>  <structureAsSmiles>
Oc1ccc2nc(CN3CCC(Oc4ccc(I)cc4)CC3)[nH]c2c1

>  <pKi>
7.49

$$$$
>  <structureAsSmiles>
Oc1ccc2nc(CN3CCC(Cc4ccccc4)CC3)[nH]c2c1

>  <pKi>
8.51

$$$$

Source of measurements: ChEMBL document CHEMBL1268917
